Every entry's value here was drawn from ChEMBL document CHEMBL1133364.

Protein target, amino acids: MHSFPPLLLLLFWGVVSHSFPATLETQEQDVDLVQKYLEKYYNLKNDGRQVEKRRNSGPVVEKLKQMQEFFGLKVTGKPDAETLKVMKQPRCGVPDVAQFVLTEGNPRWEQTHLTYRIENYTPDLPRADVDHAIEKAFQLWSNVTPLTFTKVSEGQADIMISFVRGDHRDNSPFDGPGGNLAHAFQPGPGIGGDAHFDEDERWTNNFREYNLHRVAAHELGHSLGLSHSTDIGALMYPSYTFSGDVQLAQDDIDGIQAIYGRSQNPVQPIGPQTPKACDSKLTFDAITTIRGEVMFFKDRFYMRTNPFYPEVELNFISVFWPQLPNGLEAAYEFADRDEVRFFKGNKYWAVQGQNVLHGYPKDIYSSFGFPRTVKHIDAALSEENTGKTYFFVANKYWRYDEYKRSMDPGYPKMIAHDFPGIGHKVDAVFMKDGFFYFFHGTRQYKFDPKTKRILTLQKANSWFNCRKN
pIC50: −log10 of the molar value.
measure.name: pIC50

**Q:** I have this compound here, O=C(NO)c1ccccc1S(=O)(=O)N1CCC(Oc2ccc(C(F)(F)F)cc2)C1 (stereo unspecified) , and I need its recorded pIC50.
**A:** < 5.00
